Biological target: T1, TDP-210 peptide (human)
T1 construct: 8-mer of human TDP-43; same ELISA method as for the biotinylated 15-mers
T1 peptide: FFSQYGDV
Assay: indirect ELISA, 8-mer peptide library
Procedure: Serum-free supernatants were harvested from stable hybridomas. The supernatants containing antibodies of interest were then screened by an indirect ELISA assay to determine epitopes. Epitopes were mapped using a library of TDP-43 15-mer peptides. […] After the final wash, plates were incubated with pNPP (Sigma-Aldrich, Switzerland) an AP substrate solution, and read at 405 nm using an ELISA plate reader (Tecan). […]
assay_readout: binding result

ACI-7062-406E3-Ab1 (antibody, IgG2a, V domains shown, also called 406E3D5; clone 5) VH: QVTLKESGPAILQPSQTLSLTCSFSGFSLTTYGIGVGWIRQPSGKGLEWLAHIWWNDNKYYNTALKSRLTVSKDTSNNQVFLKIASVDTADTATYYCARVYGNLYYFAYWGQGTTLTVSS VL: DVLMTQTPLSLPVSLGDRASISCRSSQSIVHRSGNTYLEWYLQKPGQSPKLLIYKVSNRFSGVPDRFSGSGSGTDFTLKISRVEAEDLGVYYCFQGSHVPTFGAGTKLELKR :: no binding
ACI-7062-412E12-Ab1 (antibody, IgG1, V domains shown, also called 412E12A2; clone 10) VH: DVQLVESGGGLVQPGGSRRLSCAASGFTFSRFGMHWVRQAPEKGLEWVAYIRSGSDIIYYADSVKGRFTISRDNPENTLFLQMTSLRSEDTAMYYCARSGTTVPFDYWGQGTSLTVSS VL: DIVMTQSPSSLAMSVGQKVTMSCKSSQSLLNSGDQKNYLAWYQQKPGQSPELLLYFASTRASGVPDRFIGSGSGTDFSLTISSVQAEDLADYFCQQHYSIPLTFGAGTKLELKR :: no binding
ACI-7062-410H3-Ab1 (antibody, IgG1, V domains shown, also called 410H3B9; clone 7) VH: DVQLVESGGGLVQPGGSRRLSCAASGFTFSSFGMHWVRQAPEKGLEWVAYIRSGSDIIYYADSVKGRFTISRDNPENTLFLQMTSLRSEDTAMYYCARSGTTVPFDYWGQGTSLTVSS VL: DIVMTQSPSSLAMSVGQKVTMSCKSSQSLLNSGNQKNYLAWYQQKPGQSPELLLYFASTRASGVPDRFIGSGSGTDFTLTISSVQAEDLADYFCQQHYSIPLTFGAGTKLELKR :: no binding

Values compiled from patent US20220025023A1.
